Below, each entry is listed with its recorded growth inhibition.
# Run Description: NCI Yeast Anticancer Drug Screen. Data for the mec2-1 strain (AID 157)
# Settings: S. cerevisiae mec2-1 strain, at 50.0 µM, active compounds read high
About 79,000 compounds went through this panel and 15% of them were active in at least one assay; those are over-represented in the sample as a whole.
Kindly answer with a numeric value in %, unit omitted.

Study these solved cases before continuing.
compound=Cc1cc(=O)[nH]c2cc(NN)ccc12 quantity_measured="growth inhibition" numeric_value=-3.85
compound=O=c1cc(-c2ccccc2)oc2c(-c3cc(Cl)cc4c(=O)cc(-c5ccccc5)oc34)cc(Cl)cc12 quantity_measured="growth inhibition" numeric_value=23.4
compound=O=S(=O)(O)c1cc(I)c(O)c2ncccc12 quantity_measured="growth inhibition" numeric_value=1
compound=CC(=N\N=C\c1ccccn1)/C(C)=N/N=C(C)/C(C)=N/N=C(C)/C(C)=N/N=C/c1ccccn1 quantity_measured="growth inhibition" numeric_value=22.2
compound="Cc1cc2nc3c(C(OC4OC(CO)C(O)C(O)C4O)C(O)CO)nn(-c4ccccc4)c3nc2cc1C (stereo unspecified)" quantity_measured="growth inhibition" numeric_value=-13.8

// next item, growth inhibition requested
Query: Fill blank: measured growth inhibition of the compound Nc1nnc2cc(Br)ccc2n1 is ____.
Result: -2.55

* * *

# Run Description: NCI Yeast Anticancer Drug Screen. Data for the mlh1 rad18 strain (AID 175)
# Settings: S. cerevisiae mlh1 rad18 strain growth inhibition; at 50.0 µM
About 79,000 compounds went through this panel and 15% of them were active in at least one assay; those are over-represented in the sample as a whole. Active and inactive are the calls of the source. Cut-off read from the data, not from the text of the source: active = growth inhibition above about 70%; inactive = the rest.
Outcome field: choose from Yes = active, No = inactive

compound="COc1ccc(N2C(=O)[C@@H]3[C@H](C2=O)c2[nH]c4ccccc4c2C2CCC(C(C)(C)C)C[C@@H]23)cc1 (stereo not given in full)" discrete_label=No
compound="CS(=O)(=O)OCCC(COS(C)(=O)=O)NC(=O)c1ccccc1 (stereo not given)" discrete_label=No
compound=C/C(=N\NC(=S)N1CC2CCC(CC2)C1)c1cccc(C)n1 discrete_label=No

Query: Just curious, what result did C=CCNC(=O)ON1C(=O)CCC1=O get here?
Result: No

Query: Hi team, can someone confirm the assay call for CN1CCN(C(=S)N(C(=O)c2ccc(Cl)cc2)C2CCCCC2)CC1 ?
Result: No

Query: Give the logged outcome of this assay for the following compound: CCOC(=O)C(=CNC(=S)Nc1ccc(OCC)cc1)C(=O)OCC
Result: No

Query: For this compound, state the assay outcome: CC(=O)Nc1ccn(C2OC(COC(C)=O)C(OC(C)=O)C(OC(C)=O)C2OC(C)=O)c(=O)n1 (stereo not given)
Result: No

Query: What did the test return for CCSc1cc(N)ncn1 ?
Result: No

Query: Call for entry COC(=O)c1cc(C(c2cc(C)c(O)c(C(=O)OC)c2)c2cc(C)c(O)c(C(=O)OC)c2)cc(C)c1O :
Result: No

Query: Could you kindly confirm the outcome this assay logged for ClC1CC2CC1C1COCC21 (stereo not given) ?
Result: No

Query: Hello, I am checking results. What call was entered for CCCCCCCCCC(=O)OC ?
Result: No

Query: Kindly provide the recorded test outcome for the following compound: O=C(Nc1nc(C23CC4CC(CC(C4)C2)C3)cs1)c1cc2cc(Br)cc(Br)c2oc1=O
Result: No

Query: Record lookup: outcome of this test for CC(C)(O)c1c(F)c(F)c(F)c(F)c1F ?
Result: No
